measured-on: Diphosphomevalonate decarboxylase (Streptococcus pneumoniae serotype 2 (strain D39 / NCTC 7466))
Sequence (A0A0H2ZN59 whole entry): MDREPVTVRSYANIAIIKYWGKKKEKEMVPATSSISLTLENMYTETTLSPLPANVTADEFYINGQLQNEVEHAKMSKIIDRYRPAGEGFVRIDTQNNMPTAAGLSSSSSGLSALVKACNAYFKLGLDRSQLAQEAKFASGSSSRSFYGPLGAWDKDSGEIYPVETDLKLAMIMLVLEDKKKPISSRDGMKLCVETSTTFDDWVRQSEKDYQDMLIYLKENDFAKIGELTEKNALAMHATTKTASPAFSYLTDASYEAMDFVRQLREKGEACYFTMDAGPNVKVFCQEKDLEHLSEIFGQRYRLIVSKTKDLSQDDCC
experiment-description: diphosphomevalonate decarboxylase inhibition dose curves – biochemical, PK/LDH-coupled NADH fluorescence, hexokinase coupling counter-screen, dose response (AID 550)
pIC50: −log10 of the molar value.
Recorded pIC50, one value per entry.

{"compound": "Cc1cccn2c(=O)c3cc(C#N)/c(=N\\C(=O)c4ccc5c(c4)OCO5)n(CC(C)C)c3nc12", "pIC50": 3.93}

Please give the documented pIC50 of CC(=O)c1cccc(NC(=O)Nc2cccnc2)c1
< 2.00

Please give the documented pIC50 of COc1ccc(-c2cc(C(F)(F)F)nc(SCCC(=O)Nc3cc(C)on3)n2)cc1
< 2.00

Please give the documented pIC50 of Cc1nc2oc3c(NCC4CCCO4)ncnc3c2c2c1COC(C)(C)C2 (stereo not given)
4.65

Please give the documented pIC50 of O=c1c2ccccc2sn1-c1ccc(S(=O)(=O)N2CCCCC2)cc1
5.67

Please give the documented pIC50 of Sc1nnc(-c2ccccc2)n1C1C=CCCC1 (stereo not given)
< 2.00

----------
Recorded IC50, one value per entry.
measured-on: Diphosphomevalonate decarboxylase (Streptococcus pneumoniae serotype 2 (strain D39 / NCTC 7466), UniProt A0A0H2ZN59)
Sequence (A0A0H2ZN59 whole entry): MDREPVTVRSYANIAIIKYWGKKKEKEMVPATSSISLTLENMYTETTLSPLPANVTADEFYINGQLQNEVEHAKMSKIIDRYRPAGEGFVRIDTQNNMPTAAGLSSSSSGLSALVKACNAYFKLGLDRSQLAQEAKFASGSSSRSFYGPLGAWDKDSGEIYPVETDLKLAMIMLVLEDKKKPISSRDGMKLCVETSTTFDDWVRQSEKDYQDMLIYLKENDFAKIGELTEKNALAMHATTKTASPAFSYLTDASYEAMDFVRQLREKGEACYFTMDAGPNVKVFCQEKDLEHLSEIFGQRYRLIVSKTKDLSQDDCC
experiment-description: diphosphomevalonate decarboxylase inhibition dose curves – biochemical, PK/LDH-coupled NADH fluorescence, hexokinase coupling counter-screen, dose response (AID 550)
Give your result in µM as a bare value.

{"mol-smiles": "Cc1oc2cc(O)ccc2c(=O)c1N1C(=O)c2ccccc2C1=O", "IC50 [µM]": 50.5}
{"mol-smiles": "CCC(=O)N(Cc1cc2cc(OC)ccc2[nH]c1=O)c1cc(C)ccc1C", "IC50 [µM]": 88.5}
{"mol-smiles": "CCn1c2ccccc2c2nc3cc(OC)c(OC)cc3nc21", "IC50 [µM]": 30.6}
{"mol-smiles": "Cc1ccc(NC(=O)N(CCCN2CCOCC2)Cc2cc3cc4c(cc3[nH]c2=O)OCO4)cc1", "IC50 [µM]": 45.6}

Please give the documented IC50 of COc1cc(NC(=O)c2ccc3c(c2)OCO3)c2ncccc2c1
52

----------
measured-on: Diphosphomevalonate decarboxylase (Streptococcus pneumoniae serotype 2 (strain D39 / NCTC 7466))
experiment-description: diphosphomevalonate decarboxylase inhibition dose curves – biochemical, PK/LDH-coupled NADH fluorescence, hexokinase coupling counter-screen, dose response (AID 550)
property-name: IC50 (µM)
Give your result in µM as a bare value.

Please give the documented IC50 of CCc1nnc2sc(-c3ccc(NC(=O)CSc4ccc(Cl)cc4)cc3)nn12
39.6

Please give the documented IC50 of O=C(Nc1ccc2nc(-c3ccco3)c(-c3ccco3)nc2c1)N1CCCCCC1
46.5

----------
Recorded pIC50, one value per entry.
measured-on: Diphosphomevalonate decarboxylase (Streptococcus pneumoniae serotype 2 (strain D39 / NCTC 7466), UniProt A0A0H2ZN59)
experiment-description: diphosphomevalonate decarboxylase inhibition dose curves – biochemical, PK/LDH-coupled NADH fluorescence, hexokinase coupling counter-screen, dose response (AID 550)
pIC50: −log10 of the molar value.

In the examples that follow, each entry is paired with its recorded pIC50.
{"compound": "CCOC(=O)c1cc2c(=O)n3cccc(C)c3nc2n(CCc2ccccc2)c1=N", "pIC50": 4.56}
{"compound": "CCOC(=O)CSc1cc(=O)n(C)c2cc(Cl)ccc12", "pIC50": "< 2.00"}
{"compound": "Cc1ccc2cc3cc(C(=O)N4CCCCCC4)oc3nc2c1", "pIC50": 4.24}
{"compound": "C=C(C)Cn1c(COc2ccccc2)nnc1SCC(=O)O", "pIC50": "< 2.00"}
{"compound": "O=C(O)CCn1nnc(-c2cccs2)n1", "pIC50": "< 2.00"}

Please give the documented pIC50 of N#Cc1c(NCCCO)nc(NCc2ccccc2)c2c1CCN(Cc1ccccc1)C2
4.41

----------
measured-on: Diphosphomevalonate decarboxylase (Streptococcus pneumoniae serotype 2 (strain D39 / NCTC 7466), UniProt A0A0H2ZN59)
experiment-description: diphosphomevalonate decarboxylase inhibition dose curves – biochemical, PK/LDH-coupled NADH fluorescence, hexokinase coupling counter-screen, dose response (AID 550)
test-context: inactive by the depositor's call
property-name: pIC50
Here pIC50 is given on a logarithmic scale as minus log10 of the concentration in mol/L.

{"compound": "Nc1nc2c(s1)CCc1c-2cnn1-c1ccccc1 [MLS000085948]", "pIC50": 5.02}
{"compound": "CCCCNC(=O)c1ccc2nc(-c3ccco3)c(-c3ccco3)nc2c1 [MLS000119995]", "pIC50": 4.12}

Please give the documented pIC50 of Cc1ccc(-c2cc(C(F)(F)F)n3ncc(C(=O)NCc4ccco4)c3n2)cc1 [MLS000109298]
4.23

Please give the documented pIC50 of O=c1cccccc1NCc1ccccc1
3.56

Please give the documented pIC50 of CCn1nc(-c2ccccc2)nc2c(=O)n(C)c(=O)nc1-2
4.70

Please give the documented pIC50 of CCn1nc(-c2cccs2)nc2c(=O)n(C)c(=O)nc1-2
5.33

----------
Recorded pIC50, one value per entry.
measured-on: Diphosphomevalonate decarboxylase (Streptococcus pneumoniae serotype 2 (strain D39 / NCTC 7466), UniProt A0A0H2ZN59)
experiment-description: diphosphomevalonate decarboxylase inhibition dose curves – biochemical, PK/LDH-coupled NADH fluorescence, hexokinase coupling counter-screen, dose response (AID 550)
pIC50: −log10 of the molar value.

In the examples that follow, each entry is paired with its recorded pIC50.
{"compound": "CCN(CC)CCCN(Cc1cc2cc3c(cc2nc1O)OCCO3)C(=O)Nc1ccccc1", "property-name": "pIC50", "observed-measurement": "< 2.00"}
{"compound": "CC(=O)Nc1cccc(NC(=O)CSc2nnnn2Cc2ccccc2)c1", "property-name": "pIC50", "observed-measurement": "< 2.00"}
{"compound": "Cc1cc(C(=O)CSc2nnnn2-c2ccc(Cl)cc2)c(C)n1CC1CCCO1 (stereo not drawn)", "property-name": "pIC50", "observed-measurement": "< 2.00"}

Please give the documented pIC50 of COc1ccc(N2CCN(CCNS(=O)(=O)c3cccc4nsnc34)CC2)cc1
< 2.00

Please give the documented pIC50 of O=C(c1noc2c1CCCC2)N1CCCCC1
< 2.00

Please give the documented pIC50 of CCN(CC)c1nc2ccccc2n2cnnc12
< 2.00

Please give the documented pIC50 of O=C(NCc1cccnc1)c1ccc2c(=O)n(CCCN3CCCC3=O)c(=S)[nH]c2c1
< 2.00

Please give the documented pIC50 of CCOC(=O)COc1ccc2nsnc2c1Cl
< 2.00

----------
measured-on: Diphosphomevalonate decarboxylase (Streptococcus pneumoniae serotype 2 (strain D39 / NCTC 7466), UniProt A0A0H2ZN59)
experiment-description: diphosphomevalonate decarboxylase inhibition dose curves – biochemical, PK/LDH-coupled NADH fluorescence, hexokinase coupling counter-screen, dose response (AID 550)
pIC50: −log10 of the molar value.
property-name: pIC50

In the examples that follow, each entry is paired with its recorded pIC50.
{"mol-smiles": "O=NC1=C(Cc2ccco2)CCC1", "pIC50": "< 2.00"}
{"mol-smiles": "Nc1nc(N)c2sc3nc4c(cc3c2n1)CCC4", "pIC50": "< 2.00"}

From here, focus on the item given below.
Please give the documented pIC50 of Cc1c(NC(=O)C2CCN(S(=O)(=O)c3ccccc3)CC2)c(=O)n(-c2ccccc2)n1C
< 2.00

Ref: BindingDB's records for doi:10.7270/Q2N014XN
